studySystem: cGMP-dependent protein kinase 1 (Homo sapiens)
experimentalParameters: at 0.1 µM
Description: GSK_PKIS: PRKG1 mean inhibition at 0.1 uM [Nanosyn]
measuredParameter: inhibition

>>> reportedvalue("c1ccc(Nc2ncc(-c3ccccc3)o2)cc1")
"5.37%"
>>> reportedvalue("CCn1c(-c2nonc2N)nc2ccc(F)cc21")
"3.97%"
>>> reportedvalue("Cc1ccc2c(-c3ccnc(Nc4ccc5c(c4)OCCO5)n3)c(-c3ccc(C(F)(F)F)cc3)nn2n1")
"3.03%"
>>> reportedvalue("Cc1ccc2c(c1)/C(=N/Nc1ccc(S(N)(=O)=O)cc1)C(=O)N2")
"0.26%"
>>> reportedvalue("C[C@@H](Oc1cc(-n2cnc3ccc(OCC4CCN(C)CC4)cc32)sc1C(N)=O)c1ccccc1C(F)(F)F")
"-2.23%"
>>> reportedvalue("Cc1cc(O)cc(C)c1/C=C/c1cncc(C(=O)N(C)C)c1")
"2.65%"
>>> reportedvalue("NS(=O)(=O)c1ccc(N/N=C2\\C(=O)Nc3ccc(Cl)cc32)cc1")
"2.65%"
>>> reportedvalue("N#Cc1c(NC(=O)c2ccccc2F)sc2c1CCCC2")
"-2.04%"
>>> reportedvalue("COc1ccc(-c2nn3ncccc3c2-c2ccnc(Nc3cccc(C(F)(F)F)c3)n2)cc1")
"1.97%"
>>> reportedvalue("Nc1nccc(C#Cc2cncnc2Nc2ccc(OCc3cccc(F)c3)c(Cl)c2)n1")
"2.37%"
>>> reportedvalue("NS(=O)(=O)c1cccc(Nc2cc(-c3ccc(F)cc3)n[nH]2)c1")
"2.36%"
>>> reportedvalue("Nc1ccc(C#Cc2cncnc2Nc2ccc(OCc3cccc(F)c3)c(Cl)c2)cc1")
"3.04%"
>>> reportedvalue("O=S(=O)(CCOCc1ccc(-c2ccc3ncnc(Nc4ccc(OCc5cccc(F)c5)c(Cl)c4)c3c2)o1)c1ccccc1")
"1.36%"
>>> reportedvalue("CN(C)C(=O)O[C@H]1CN[C@H](C#Cc2cc3ncnc(Nc4ccc(OCc5cccc(F)c5)c(Cl)c4)c3s2)C1")
"2.24%"
>>> reportedvalue("COc1cc2ncn(-c3cc(OCc4ccccc4S(C)(=O)=O)c(C#N)s3)c2cc1OC")
"4.3%"
>>> reportedvalue("CN(C)c1cc2c(Nc3ccc4c(cnn4Cc4ccccc4)c3)ncnc2cn1")
"0.2%"
>>> reportedvalue("NC(=O)c1cccc(Nc2nccc(Nc3cccc(F)c3)n2)c1")
"0.12%"
>>> reportedvalue("O=C1Nc2ccccc2/C1=C/Nc1ccc2[nH]c(=O)[nH]c2c1")
"1.49%"
>>> reportedvalue("COc1cccc(-n2ncc3c(N/N=C/c4ccc(C)cc4)ncnc32)c1")
"3.66%"
>>> reportedvalue("ON=C1CCc2cc(-c3nc(C4CCNCC4)[nH]c3-c3ccncc3)ccc21")
"-0.33%"
>>> reportedvalue("Oc1cccc(-c2nc(-c3ccccc3)[nH]c2-c2ccncc2)c1")
"2.56%"
>>> reportedvalue("COC(=O)Nc1nc2cc(Oc3ccc(NC(=O)Nc4cccc(Br)c4)cc3)ccc2[nH]1")
"1.83%"
>>> reportedvalue("COc1cc2ncnc(Nc3ccc(C)c(O)c3)c2cc1OC")
"3.2%"
>>> reportedvalue("COc1cc(/C=N/Nc2ncnc3c2cnn3C(C)C)ccc1O")
"3.26%"
>>> reportedvalue("Cc1ccc(Nc2ccnc(Nc3cccc(C(N)=O)c3)n2)cc1O")
"1.11%"
>>> reportedvalue("CC(C)c1ccc2c(c1)NC(=O)/C2=N/Nc1ccc(S(N)(=O)=O)cc1")
"-1.53%"
>>> reportedvalue("N#Cc1cccc(Nc2nccc(-c3cnn4ncccc34)n2)c1")
"10.8%"
>>> reportedvalue("CCOc1nccc2c1nc(-c1nonc1N)n2CC")
"4.09%"
>>> reportedvalue("Nc1nccc(-c2c(-c3ccc(F)cc3)nn3cc(C(F)(F)F)ccc23)n1")
"-0.61%"
>>> reportedvalue("CN(C)C(=O)O[C@@H]1CN[C@@H](C#Cc2cc3ncnc(Nc4ccc(OCc5cccc(F)c5)c(Cl)c4)c3s2)C1")
"-0.86%"
>>> reportedvalue("NC(=O)c1sc(-n2cnc3ccccc32)cc1OCc1ccccc1Br")
"3.41%"
>>> reportedvalue("CS(=O)(=O)Nc1cccc(-c2ccc3c(NC(=O)C4CC4)n[nH]c3c2)c1")
"-0.41%"
>>> reportedvalue("NS(=O)(=O)c1ccc(Nc2cc(-c3cccc(O)c3)n[nH]2)cc1")
"5.01%"
>>> reportedvalue("NS(=O)(=O)c1cccc(-c2cc3ccncc3cc2OCc2ccccc2)c1")
"3.6%"
>>> reportedvalue("c1ccc(Cc2nc3ccc(Nc4ncnc5ccccc45)cc3[nH]2)cc1")
"1.14%"
>>> reportedvalue("Cc1cc(-c2ccccn2)cc(C)c1/C=C/c1cncc(-c2nn[nH]n2)c1")
"3.51%"
>>> reportedvalue("COc1cccc(-n2ncc3c(N/N=C/c4ccc(S(C)(=O)=O)cc4)ncnc32)c1")
"1.11%"
>>> reportedvalue("CCS(=O)(=O)c1ccc(OC)c(Nc2ncc(-c3cccc(OC)c3)o2)c1")
"1.45%"
>>> reportedvalue("Cc1ccc(O)cc1Nc1ccnc2ccc(S(C)(=O)=O)cc12")
"2.84%"
>>> reportedvalue("Cc1ccc2c(-c3ccnc(Nc4cccc(C(F)(F)F)c4)n3)c(-c3ccccc3)nn2n1")
"3.11%"
>>> reportedvalue("NS(=O)(=O)c1ccc(-c2cc3ccncc3cc2OCc2ccccc2)cc1")
"0.96%"
>>> reportedvalue("CCn1c(-c2nonc2N)nc2c(C#CC(C)(C)O)nc(OCCNC)cc21")
"9.59%"

* * *

studySystem: Epidermal growth factor receptor (Homo sapiens) (UniProt P00533);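 further: values are mean inhibition figures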
Sequence (P00533 whole entry): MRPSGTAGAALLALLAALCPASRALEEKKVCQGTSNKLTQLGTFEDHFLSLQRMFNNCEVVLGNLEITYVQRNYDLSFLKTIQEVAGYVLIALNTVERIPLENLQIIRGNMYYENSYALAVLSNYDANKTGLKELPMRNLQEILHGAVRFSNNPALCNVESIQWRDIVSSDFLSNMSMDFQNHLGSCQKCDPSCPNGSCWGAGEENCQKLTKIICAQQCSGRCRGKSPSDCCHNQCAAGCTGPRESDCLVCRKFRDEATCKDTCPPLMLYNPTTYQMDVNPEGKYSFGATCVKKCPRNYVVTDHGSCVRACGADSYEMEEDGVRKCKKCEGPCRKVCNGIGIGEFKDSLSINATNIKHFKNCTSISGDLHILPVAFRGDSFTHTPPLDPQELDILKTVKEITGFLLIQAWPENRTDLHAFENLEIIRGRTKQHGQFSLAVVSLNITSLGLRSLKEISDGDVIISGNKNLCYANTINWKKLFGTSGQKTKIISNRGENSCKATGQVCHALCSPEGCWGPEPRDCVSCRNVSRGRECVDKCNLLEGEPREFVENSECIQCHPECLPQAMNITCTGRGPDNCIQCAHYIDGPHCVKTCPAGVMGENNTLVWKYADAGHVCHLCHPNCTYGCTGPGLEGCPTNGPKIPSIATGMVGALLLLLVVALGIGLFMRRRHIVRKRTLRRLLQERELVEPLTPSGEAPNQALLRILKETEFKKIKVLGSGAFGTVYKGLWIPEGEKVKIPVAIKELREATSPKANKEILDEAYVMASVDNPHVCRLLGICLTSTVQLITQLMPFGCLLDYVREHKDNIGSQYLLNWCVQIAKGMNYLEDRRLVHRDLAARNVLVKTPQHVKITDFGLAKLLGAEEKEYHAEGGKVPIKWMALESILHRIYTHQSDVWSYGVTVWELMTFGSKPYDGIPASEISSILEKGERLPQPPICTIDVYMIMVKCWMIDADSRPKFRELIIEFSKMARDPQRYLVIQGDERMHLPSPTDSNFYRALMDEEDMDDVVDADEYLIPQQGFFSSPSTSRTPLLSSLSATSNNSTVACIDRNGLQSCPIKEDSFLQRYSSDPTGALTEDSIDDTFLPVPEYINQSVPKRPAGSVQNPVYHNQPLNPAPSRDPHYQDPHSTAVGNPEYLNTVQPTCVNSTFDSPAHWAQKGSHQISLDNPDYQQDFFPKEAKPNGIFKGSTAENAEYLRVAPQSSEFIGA
experimentalParameters: at 1 µM
Quick rule for you: inhibition at 2% or higher means condition met, lower means condition not met.

>>> group("Cc1ccc(NC(=O)CC2CC2)cc1-c1ccc(C(=O)NCC2CC2)cc1")
"condition met"
>>> group("Cc1nc(-c2ccccc2)n2nc(NCCCN3CCOCC3)ncc12")
"condition met"
>>> group("COC(=O)c1ccc2c(c1)C(=Cc1cc(Br)c(O)c(Br)c1)C(=O)N2")
"condition met"
>>> group("CCn1c(-c2nonc2N)nc2c(C#CC(C)(C)O)nc(OCCNC)cc21")
"condition not met"

* * *

studySystem: Tyrosine-protein kinase Lck (Homo sapiens);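 further: reported values are mean percent inhibition of Lck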
experimentalParameters: at 0.1 µM
# class assignment by measured inhibition: lower bin: < 1%; middle bin: ≥ 1% and < 2%; upper bin: ≥ 2%

>>> group("CCOc1nccc2c1nc(-c1nonc1N)n2CC")
"middle bin"
>>> group("FC(F)(F)c1ccc(-c2nn3ncccc3c2-c2ccnc(Nc3ccc4c(c3)OCCO4)n2)cc1")
"upper bin"
>>> group("COc1cccc(-n2ncc3c(N/N=C/c4ccc(S(C)(=O)=O)cc4)ncnc32)c1")
"upper bin"
>>> group("Nc1nccc(C#Cc2cncnc2Nc2ccc(OCc3cccc(F)c3)c(Cl)c2)n1")
"middle bin"
>>> group("CN(C)C(=O)O[C@H]1CN[C@H](C#Cc2cc3ncnc(Nc4ccc(OCc5cccc(F)c5)c(Cl)c4)c3s2)C1")
"middle bin"
>>> group("NS(=O)(=O)c1ccc(-c2cc3ccncc3cc2OCc2ccccc2)cc1")
"middle bin"
>>> group("COc1cc2ncnc(Nc3ccc4c(cnn4Cc4ccccc4)c3)c2cc1OC")
"upper bin"
>>> group("C[C@@H](Oc1cc(-n2cnc3ccc(OC[C@@H](O)CO)cc32)sc1C(N)=O)c1ccccc1Cl")
"middle bin"
>>> group("ON=C1CCc2cc(-c3nc(C4CCNCC4)[nH]c3-c3ccncc3)ccc21")
"lower bin"
>>> group("N#Cc1c(NC(=O)c2ccccc2F)sc2c1CCCC2")
"lower bin"

* * *

studySystem: Tyrosine-protein kinase Fyn (Homo sapiens)
experimentalParameters: at 0.1 µM
Description: GSK_PKIS: FYN mean inhibition at 0.1 uM [Nanosyn]
Quick rule for you: inhibition at 2% or higher means true, lower means false.

>>> group("Cc1ccc(NC(=O)CC2CC2)cc1-c1ccc(C(=O)NCC2CC2)cc1")
"false"
>>> group("CN(C)C(=O)O[C@@H]1CN[C@@H](C#Cc2cc3ncnc(Nc4ccc(OCc5cccc(F)c5)c(Cl)c4)c3s2)C1")
"false"
>>> group("CN(C)c1cc2c(Nc3ccc4c(cnn4Cc4ccccc4)c3)ncnc2cn1")
"true"
>>> group("CCCN1CCCC(c2ccc(Nc3nc(Nc4cc(F)ccc4C(N)=O)c4cc[nH]c4n3)c(OC)c2)C1 (stereo not given)")
"true"
>>> group("COc1ccc2ncnc(Nc3ccc(OCc4ccccc4)cc3)c2c1")
"true"
>>> group("CN(c1ccc(NC(=O)Nc2ccc(OC(F)(F)F)cc2)cc1)c1ccnc(Nc2cccc(S(N)(=O)=O)c2)n1")
"true"
>>> group("Cc1cc(-c2ccccn2)cc(C)c1/C=C/c1cncc(-c2nn[nH]n2)c1")
"true"
>>> group("NS(=O)(=O)c1ccc(-c2cc3ccncc3cc2OCc2ccccc2)cc1")
"false"
>>> group("Nc1nccc(-c2c(-c3ccc(F)cc3)nn3cc(C(F)(F)F)ccc23)n1")
"false"
>>> group("C[C@@H](Oc1cc(-n2cnc3ccc(OCC4CCN(C)CC4)cc32)sc1C(N)=O)c1ccccc1C(F)(F)F")
"true"
>>> group("NC(=O)c1cccc(Nc2nccc(Nc3cccc(F)c3)n2)c1")
"true"
>>> group("COc1cc2ncnc(Nc3ccc4c(cnn4Cc4ccccc4)c3)c2cc1OC")
"true"
>>> group("OCc1ccc(-c2nc(-c3ccccn3)c(-c3ccc4c(c3)OCO4)[nH]2)cc1")
"true"
>>> group("Cc1ccc2c(-c3ccnc(Nc4cccc(C(F)(F)F)c4)n3)c(-c3ccccc3)nn2n1")
"true"
>>> group("C[C@@H](Oc1cc(-n2cnc3ccc(OC[C@@H](O)CO)cc32)sc1C(N)=O)c1ccccc1Cl")
"false"
>>> group("Cc1ccc2c(-c3ccnc(Nc4ccc5c(c4)OCCO5)n3)c(-c3ccc(C(F)(F)F)cc3)nn2n1")
"false"
>>> group("CC(C)c1ccc(Nc2nccc(-c3cnn4ncccc34)n2)cc1")
"false"
>>> group("NS(=O)(=O)c1cccc(Nc2cc(-c3ccc(F)cc3)n[nH]2)c1")
"false"
